Every entry's value here was drawn from patent US7071180B2.

Where a name gives a salt, the structure may show the parent alone.
readout_name: melting point

Lookup result for O=[N+]([O-])c1ccc2c(c1)OC(COc1nccnc1N1CCNCC1)CO2 (centres unmarked) [Example 146] ; measured melting point: 133 to 135 °C

Lookup result for c1ccc2c(c1)CCC(COc1nccnc1N1CCNCC1)O2 (centres unmarked) (as salt: hydrochloride) [Example 133] ; measured melting point: 170 to 175 °C

###

Structures can show the parent of a compound that is named as a salt.
Recorded melting point by entry

Lookup result for OCCOc1ccc(OCCOc2nccnc2N2CCNCC2)cc1 (as salt: maleate) [Example 120] ; measured melting point: 127 to 129 °C

Lookup result for c1cncc(CCCOc2nccnc2N2CCNCC2)c1 (as salt: maleate) [Example 126] ; measured melting point: 128 to 130 °C

Lookup result for c1cc(OCCOc2nccnc2N2CCNCC2)c2c(c1)OCCO2 [Example 79] ; measured melting point: 98 to 99 °C

###

Recorded melting point by entry
Counter-ions that a name gives are not always drawn.

c1cnc2ccc(OCCOc3nccnc3N3CCNCC3)cc2c1 (as salt: maleate) [Example 136]: 167 to 169 °C

Lookup result for Brc1ncccc1OCCOc1nccnc1N1CCNCC1 (as salt: fumarate) [Example 195] ; measured melting point: 202 °C

Lookup result for c1cc2c(c(OCCOc3nccnc3N3CCNCC3)c1)OCC2 (as salt: maleate) [Example 186] ; measured melting point: 149 to 154 °C

Lookup result for COc1cccc(OCCOc2nccnc2N2CCNCC2)c1 (as salt: toluenesulfonate) [Example 102] ; measured melting point: 131 to 133 °C

Lookup result for COc1ccc(C)cc1OCCOc1nccnc1N1CCNCC1 (as salt: maleate) [Example 144] ; measured melting point: 148 to 149 °C

Lookup result for Nc1nc2c(OCCOc3nccnc3N3CCNCC3)cccc2o1 (as salt: fumarate) [Example 21] ; measured melting point: 138 to 140 °C

###

Structures can show the parent of a compound that is named as a salt.
readout_name: melting point

COc1ccc(F)cc1OCCOc1nccnc1N1CCNCC1 (as salt: fumarate): 172 to 176 °C

Lookup result for c1cc(OCCOc2nccnc2N2CCNCC2)c2cccnc2c1 (as salt: maleate) ; measured melting point: 132 to 135 °C

Lookup result for Cc1nc2cc(OCCOc3nccnc3N3CCNCC3)ccc2s1 (as salt: hydrochloride) ; measured melting point: 188 to 190 °C

Lookup result for CSc1ncccc1OCCOc1nccnc1N1CCNCC1 (as salt: fumarate) ; measured melting point: 201 °C

###

Recorded pKi by entry
target_entity: human 5-HT2c receptor (Homo sapiens)
Construct: expressed in transfected cells
Sequence (P28335 33-458): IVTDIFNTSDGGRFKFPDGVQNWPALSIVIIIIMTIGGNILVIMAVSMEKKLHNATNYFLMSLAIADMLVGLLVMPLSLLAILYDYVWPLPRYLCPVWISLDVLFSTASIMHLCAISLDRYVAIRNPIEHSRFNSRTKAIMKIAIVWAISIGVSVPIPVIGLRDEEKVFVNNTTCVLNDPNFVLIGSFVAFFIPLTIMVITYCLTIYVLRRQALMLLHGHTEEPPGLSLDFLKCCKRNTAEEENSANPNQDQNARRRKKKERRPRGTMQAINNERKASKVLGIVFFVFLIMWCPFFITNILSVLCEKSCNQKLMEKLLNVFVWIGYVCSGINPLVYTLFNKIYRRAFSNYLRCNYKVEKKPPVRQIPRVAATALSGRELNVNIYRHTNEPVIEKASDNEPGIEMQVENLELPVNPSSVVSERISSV
protocol_notes: 5-HT2c receptor affinity assay (displacement of 3H-labelled 5-HT, Scintillation Proximity Assay)
setup_conditions: displacement of 3H-5-HT from membranes of transfected HEK293 cells expressing human 5-HT2c receptor; non-specific binding 5 μM mianserin
Schema: pKi number; meaning minus log10 of the concentration expressed in molar units.

Past entries and their recorded results:
C[C@@H]1CNCCN1c1nccnc1OCCOc1cccnc1: 7.80
Cc1nc(OCCOc2ccccc2)c(N2CCNCC2)nc1C: 8.00
NC1CCN(c2nccnc2OCCOc2ccccc2Cl)C1 (centres unmarked): 6.42
c1ccc(COc2cccc(OCCOc3nccnc3N3CCNCC3)c2)cc1: 7.92

The reported human 5-HT2c receptor (Homo sapiens) pKi of `C[C@@H]1CNCCN1c1nccnc1OCCOc1cccnc1Cl` is 8.30
